- Test system: PXR homodimer (NR concentration 270 nM)
- protocolDescription: PBM binding z-score (relative to random genomic background probes); higher = stronger binding; sequences stand for … in GC…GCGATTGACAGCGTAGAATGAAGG
Listed here are sequences together with their documented PBM binding z-score.

{"querySequence": "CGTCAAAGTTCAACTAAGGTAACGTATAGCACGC", "PBM binding z-score": 5.22}
{"querySequence": "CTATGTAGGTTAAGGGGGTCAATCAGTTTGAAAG", "PBM binding z-score": 7.48}
{"querySequence": "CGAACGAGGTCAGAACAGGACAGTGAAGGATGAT", "PBM binding z-score": 0.676}
{"querySequence": "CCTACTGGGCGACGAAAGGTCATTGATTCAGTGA", "PBM binding z-score": 0.841}
{"querySequence": "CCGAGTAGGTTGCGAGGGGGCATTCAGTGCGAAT", "PBM binding z-score": 4.85}
{"querySequence": "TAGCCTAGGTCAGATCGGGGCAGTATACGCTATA", "PBM binding z-score": -0.84}
{"querySequence": "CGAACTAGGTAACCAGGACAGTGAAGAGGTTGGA", "PBM binding z-score": 0.0727}
{"querySequence": "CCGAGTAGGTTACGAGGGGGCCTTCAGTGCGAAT", "PBM binding z-score": 0.533}
{"querySequence": "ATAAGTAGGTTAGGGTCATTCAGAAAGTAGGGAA", "PBM binding z-score": 3.26}
{"querySequence": "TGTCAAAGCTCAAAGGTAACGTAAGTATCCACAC", "PBM binding z-score": -0.43}
{"querySequence": "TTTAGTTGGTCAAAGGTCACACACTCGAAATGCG", "PBM binding z-score": 1.61}
{"querySequence": "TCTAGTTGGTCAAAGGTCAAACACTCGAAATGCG", "PBM binding z-score": 2.64}

###

Listed here are sequences together with their documented PBM binding z-score.
- Tested on: RARg homodimer (NR concentration 270 nM)
- protocolDescription: PBM binding z-score (relative to random genomic background probes); higher = stronger binding; sequences stand for … in GC…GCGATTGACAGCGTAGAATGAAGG

{"querySequence": "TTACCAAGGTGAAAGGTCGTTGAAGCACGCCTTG", "PBM binding z-score": 2}
{"querySequence": "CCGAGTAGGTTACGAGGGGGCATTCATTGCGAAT", "PBM binding z-score": 2.09}
{"querySequence": "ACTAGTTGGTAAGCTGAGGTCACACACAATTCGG", "PBM binding z-score": 2.93}
{"querySequence": "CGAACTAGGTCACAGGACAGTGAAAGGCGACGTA", "PBM binding z-score": 4.96}
{"querySequence": "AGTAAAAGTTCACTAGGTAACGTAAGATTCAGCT", "PBM binding z-score": 4.93}
{"querySequence": "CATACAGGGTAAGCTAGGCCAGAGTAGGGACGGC", "PBM binding z-score": 0.59}
{"querySequence": "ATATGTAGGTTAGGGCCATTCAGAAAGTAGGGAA", "PBM binding z-score": 0.94}
{"querySequence": "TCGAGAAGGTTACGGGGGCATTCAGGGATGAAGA", "PBM binding z-score": 3.04}
{"querySequence": "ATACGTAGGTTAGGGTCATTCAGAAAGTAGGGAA", "PBM binding z-score": 3.37}
{"querySequence": "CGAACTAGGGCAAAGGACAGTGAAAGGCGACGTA", "PBM binding z-score": 1.87}
{"querySequence": "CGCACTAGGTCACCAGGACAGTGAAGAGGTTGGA", "PBM binding z-score": 5.06}
{"querySequence": "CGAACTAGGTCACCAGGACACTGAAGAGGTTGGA", "PBM binding z-score": 5.4}
